Recorded β-Arrestin IC50 for the following binders
# assaySystem: T1, Formyl-Peptide Receptor 1 (UniProt P21462 1-350, limits assumed)
# T1 sequence (looked up): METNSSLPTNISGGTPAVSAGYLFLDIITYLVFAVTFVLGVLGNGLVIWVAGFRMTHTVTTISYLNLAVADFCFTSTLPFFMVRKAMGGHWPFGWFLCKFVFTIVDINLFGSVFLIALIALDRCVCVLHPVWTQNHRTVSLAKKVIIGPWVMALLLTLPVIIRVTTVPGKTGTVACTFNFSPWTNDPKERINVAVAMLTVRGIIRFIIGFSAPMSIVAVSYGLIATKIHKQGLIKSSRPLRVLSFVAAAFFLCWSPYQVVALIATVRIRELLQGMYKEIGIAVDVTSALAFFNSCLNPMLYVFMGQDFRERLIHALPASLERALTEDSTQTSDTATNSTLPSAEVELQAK
# experimentNotes: cell-based or functional assay
Bridges are numbered along the chain shown (N, C = ends). Primed or numbered codes have the meaning given here. [ ]: non-standard residue; d: D form. dPip′ = not defined here
Field: numeric (nM). Do not append units.

binder: cyclo(YHKCWG[dP]WTICYQK[dP]P) (disulfide 4-11; SMILES CC[C@H](C)[C@@H]1NC(=O)[C@H]([C@@H](C)O)NC(=O)[C@H](Cc2c[nH]c3ccccc23)NC(=O)[C@H]2CCCN2C(=O)CNC(=O)[C@H](Cc2c[nH]c3ccccc23)NC(=O)[C@@H]2CSSC[C@H](NC1=O)C(=O)N[C@@H](Cc1ccc(O)cc1)C(=O)N[C@@H](CCC(N)=O)C(=O)N[C@@H](CCCCN)C(=O)N1CCC[C@@H]1C(=O)N1CCC[C@H]1C(=O)N[C@@H](Cc1ccc(O)cc1)C(=O)N[C@@H](Cc1c[nH]cn1)C(=O)N[C@@H](CCCCN)C(=O)N2) [cyclo(-Tyr-His-Lys-Cys-Trp-Gly-^DPro-Trp-Thr-Ile-Cys-Tyr-Gln-Lys-^DPro-Pro-)]
β-Arrestin IC50 (nM): 71

Name the recorded β-Arrestin IC50 of the binder listed here: cyclo(YHKCHG[dP]WTICYEK[dPip′]P) (disulfide 4-11) [cyclo(-Tyr-His-Lys-Cys-His-Gly-^DPro-Trp-Thr-Ile-Cys-Tyr-Glu-Lys-^DPip-Pro-)]
29
